The origin of these recorded values is paper PMC9490236.

Reported PAMPA_R3 values for a set of compounds
Assay: Parallel artificial membrane permeability assay (PAMPA)
Settings: PAMPA Papp, replicate 3; BQL: No significant peak detected for the peptide in the acceptor wells
Where a SMILES comes first, the peptide text is derived from it. [ ]: non-standard residue; d: D form. NMeL = CN[C@@H](CC(C)C)C(=O)O; dNMeL = CN[C@H](CC(C)C)C(=O)O; dNMeV = CN[C@@H](C(=O)O)C(C)C; dNMeA = CN[C@H](C)C(=O)O
Number only, please.

CC(C)C[C@@H]1NC(=O)[C@H](CC(C)C)N(C)C(=O)[C@H]2CCCN2C(=O)[C@H]2CCCN2C(=O)[C@H](CC(C)C)NC(=O)[C@@H](CC(C)C)N(C)C(=O)[C@@H](C)NC(=O)[C@@H](CC(C)C)N(C)C(=O)[C@H]2CCCN2C(=O)[C@@H](CC(C)C)NC(=O)[C@@H](C)N(C)C1=O [Design D11.15] (cyclo(L[dNMeA][dL][dP][dNMeL][dA][dNMeL]L[dP][dP][NMeL])) : 1.56E-06

Q: Given the compound CC[C@@H](C)[C@H]1NC(=O)[C@@H](CC(C)C)N(C)C(=O)[C@@H]2CCCN2C(=O)[C@H](C(C)C)NC(=O)[C@@H](C)N(C)C(=O)[C@@H]2CCCN2C(=O)[C@@H](CC(C)C)NC(=O)[C@@H](C(C)C)N(C)C(=O)[C@@H]2CCCN2C(=O)[C@H](C)NC(=O)[C@H](C(C)C)NC(=O)[C@@H]2CCCN2C1=O [Design D12.5] (cyclo(AP[dNMeV][dL]P[dNMeA]VP[dNMeL][dI]PV)) , what is its reported PAMPA_R3?
A: 1.52E-07

* * *

Conditions: PAMPA
Readout Type: PAMPA_R1 (cm/s)
Write the answer as a number in cm/s, unit excluded.

Q: Given the molecule CC[C@H](C)[C@@H]1NC(=O)[C@H](Cc2ccccc2)NC(=O)[C@H]2CCCN2C(=O)[C@H]([C@@H](C)CC)NC(=O)[C@H](C(C)C)NC(=O)[C@@H](C)NC(=O)[C@H]2CCCN2C1=O (single isomer, unassigned) [Design D7.8.p2, VAL ILE DPRO PHE ILE DPRO DALA] , what is its reported PAMPA_R1?
A: 4.52e-06

* * *

Tested on: Caco-2 cells
Assay: Caco-2 permeability assay (apical to basolateral)
Assay type: in vitro ADME, human
Design: unit not given here
Conditions: Caco-2 Papp, replicate 3
Where a SMILES comes first, the peptide text is derived from it. [ ]: non-standard residue; d: D form. NMeF = CN[C@@H](Cc1ccccc1)C(=O)O
Reported Caco_R3 values for a set of molecules
Number only, please.

CC[C@@H](C)[C@H]1NC(=O)[C@H](CC(C)C)NC(=O)[C@@H](CC(C)C)NC(=O)[C@H](C(C)C)NC(=O)[C@@H](Cc2ccccc2)N(C)C(=O)[C@@H]2CCCN2C(=O)[C@@H](CC(C)C)NC(=O)[C@H](CC(C)C)NC(=O)[C@H]2CCCN2C1=O (single isomer, unassigned) [Design D9.4.p2] : 2.03
CC[C@H](C)[C@@H]1NC(=O)[C@H](Cc2ccccc2)N(C)C(=O)[C@H](CC(C)C)N(C)C(=O)[C@@H](C(C)C)NC(=O)[C@@H](C)NC(=O)[C@@H]2CCCN2C(=O)[C@@H](CC(C)C)NC(=O)[C@@H]2CCCN2C(=O)[C@H](C)NC1=O (single isomer, unassigned) [Design D9.6.p2] : 7.44

Next, consider the following molecule.
Q: Given the molecule CC(C)C[C@@H]1NC(=O)[C@@H](C(C)C)NC(=O)[C@H](Cc2ccccc2)N(C)C(=O)[C@H]2CCCN2C(=O)[C@H]2CCCN2C(=O)[C@@H](C)NC(=O)[C@H](Cc2ccccc2)N(C)C(=O)[C@H]2CCCN2C(=O)[C@@H](C(C)C)NC(=O)[C@@H]2CCCN2C1=O [Design D10.4] (cyclo(LP[dV][dP][NMeF][dA][dP][dP][NMeF][dV])) , what is its reported Caco_R3?
A: 0.49
